B1: FANCE (parent)
chain: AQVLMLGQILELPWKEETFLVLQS

Variants of: B1
PROTOCOL NOTES: protein stability index of a GFP-peptide fusion (GPS, HEK-293T) (PSI 1-6); higher = more stable;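 further: lentivirally expressed fusions sorted by FACS into six bins by GFP to DsRed ratio, PSI derived from sequencing read proportions per bin multiplied by bin number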
SETTINGS: c terminus: a fixed tail appended
TEST READOUT: protein stability index
Provide a numeric answer; units are not to be included.

Identify protein stability index associated with the variant Q8I 4.26

Identify protein stability index associated with the variant E16Y 3.33

Identify protein stability index associated with the variant L22H 2.08

Identify protein stability index associated with the variant E17F 1.89

Identify protein stability index associated with the variant P13L 2.2

Identify protein stability index associated with the variant M5R 1.78

Identify protein stability index associated with the variant E11R 2.01

Identify protein stability index associated with the variant M5N 2.12

Identify protein stability index associated with the variant L10R 3.13

Identify protein stability index associated with the variant L10G 2.19

Identify protein stability index associated with the variant V3G 1.85

Identify protein stability index associated with the variant T18H 3.02

Identify protein stability index associated with the variant S24Q 1.69

Identify protein stability index associated with the variant L12D 2.26

Identify protein stability index associated with the variant L22G 3.21

Identify protein stability index associated with the variant L12H 2.4

Identify protein stability index associated with the variant M5T 1.72

Identify protein stability index associated with the variant K15L 2.82

Identify protein stability index associated with the variant V21H 1.77

Identify protein stability index associated with the variant I9L 3.3

Identify protein stability index associated with the variant E11K 2.65

Identify protein stability index associated with the variant F19V 2.48

Identify protein stability index associated with the variant L6Y 3.4

Identify protein stability index associated with the variant G7D 2.12

Identify protein stability index associated with the variant G7C 2.25

Identify protein stability index associated with the variant P13W 3.76

Identify protein stability index associated with the variant E16M 2.5

Identify protein stability index associated with the variant G7V 2.8

Identify protein stability index associated with the variant L6K 3.18

Identify protein stability index associated with the variant Q8S 2.42

Identify protein stability index associated with the variant L12G 3.1

Identify protein stability index associated with the variant E16V 3.46

Identify protein stability index associated with the variant L10S 3

Identify protein stability index associated with the variant S24H 2.58

Identify protein stability index associated with the variant Q2F 1.72

Identify protein stability index associated with the variant Q23T 2.41

Identify protein stability index associated with the variant T18Y 2.29

Identify protein stability index associated with the variant V21C 3.25

Identify protein stability index associated with the variant L22S 1.13

Identify protein stability index associated with the variant Q2T 3.45

Identify protein stability index associated with the variant L6A 1.48

Identify protein stability index associated with the variant V3L 3.37

Identify protein stability index associated with the variant L6D 2.3

Identify protein stability index associated with the variant L4Q 2.4

Identify protein stability index associated with the variant L20T 1.76

Identify protein stability index associated with the variant M5W 2.56

Identify protein stability index associated with the variant L4R 2.68

Identify protein stability index associated with the variant V3D 1.81

Identify protein stability index associated with the variant V21N 2.3

Identify protein stability index associated with the variant E16H 3.11

Identify protein stability index associated with the variant Q2N 3.14

Identify protein stability index associated with the variant L22R 1.63

Identify protein stability index associated with the variant L6R 1.13

Identify protein stability index associated with the variant Q23W 3.42

Identify protein stability index associated with the variant W14C 2.55

Identify protein stability index associated with the variant T18N 4.29

Identify protein stability index associated with the variant L20A 3.76

Identify protein stability index associated with the variant E11G 2.17

Identify protein stability index associated with the variant K15Y 5.17

Identify protein stability index associated with the variant P13K 2.57

Identify protein stability index associated with the variant L20E 2.24

Identify protein stability index associated with the variant V3Q 1.72

Identify protein stability index associated with the variant F19T 1.56

Identify protein stability index associated with the variant I9A 3.41

Identify protein stability index associated with the variant L10N 1.88

Identify protein stability index associated with the variant T18L 2.16

Identify protein stability index associated with the variant L4T 2.7

Identify protein stability index associated with the variant T18D 1.84

Identify protein stability index associated with the variant V21R 3.15

Identify protein stability index associated with the variant I9F 3.22

Identify protein stability index associated with the variant Q23I 2.18

Identify protein stability index associated with the variant E16G 2.03

Identify protein stability index associated with the variant P13F 3.35

Identify protein stability index associated with the variant A1R 1.83

Identify protein stability index associated with the variant V21K 2.9

Identify protein stability index associated with the variant L10A 1.81

Identify protein stability index associated with the variant M5V 3.14

Identify protein stability index associated with the variant L4C 3.01

Identify protein stability index associated with the variant A1N 2.31

Identify protein stability index associated with the variant L20G 1.81

Identify protein stability index associated with the variant F19G 2.11

Identify protein stability index associated with the variant L4M 3.29

Identify protein stability index associated with the variant E11I 1.47

Identify protein stability index associated with the variant T18P 1.79

Identify protein stability index associated with the variant Q2A 2.05

Identify protein stability index associated with the variant L10K 2.04

Identify protein stability index associated with the variant V21Y 3.3

Identify protein stability index associated with the variant L12N 1.94

Identify protein stability index associated with the variant V21W 2.4

Identify protein stability index associated with the variant A1G 2.51

Identify protein stability index associated with the variant L6E 1.44
